Numbers sourced from the supplement of paper PMC9170038.

# Test system: MS2 coat protein
# Experiment: apparent KD of MS2 coat protein; designed switch direction (-1 OFF switch, 1 ON switch): -1; higher = weaker reporter binding
# Applied conditions: input ligand: none
apparent KD of MS2 coat protein by entry:
Recorded endpoint: apparent KD of MS2 coat protein

Biopolymer sequence | Observed result
AACCUGUCAGGAUAUCAAUUCUGUGCGUGACUACAGGACGCUGAGAAGGGACAUGAGGAUCACCCAUGUUGACU [Eternabot (Original) Solution 33] (Eterna round: R97, puzzle: Exclusion 4) | 26.8 nM
UGUAACCGAGGAUAUACAUGAGGAUCACCCAUGUAAUGUAGUAUAGUGUAUGUAAGAUGUAGAAGGUGGGAUGU (Eterna round: R97, puzzle: Exclusion 3) | 45.7 nM
GUAGUUCGAGUUAGGAUAUGAUUAAAAUUCGGAUAUCAGAAGGAACUUGAGGAUCACCCAAGUAUAGAUGAUUC [JR_BMEx4_Sub058] (Eterna round: R97, puzzle: Brourd's mod of Exclusion 4) | 38.1 nM
UCGGAUAGAGGAUAUACAUGAGGAUCACCCAUGUGGUCAAGCGGGUACGCCCAGCGAGGUAGAAGGCUAUCCGG [Eternabot (L1) Solution 16] (Eterna round: R97, puzzle: Exclusion 3) | 136 nM
GGCCAGAUAGGAUAUACUUGAGGAUCACCCAAGUAAAGGAGCAAGCUCCGAUCCUUUGGUAGAAGGAUCGGCCA [Diqulees] (Eterna round: R97, puzzle: Exclusion 3) | 52.8 nM
AUUGAUGUUGAGGAUAUGCUUUUAUUUAUAAUAGCAGAAGGCGAUACAUGAGGAUCACCCAUGUUCAUGGUAGU [JR_E6_Sub095] (Eterna round: R96, puzzle: Exclusion 6) | 63.4 nM
CUAAUAUAUCAGGAUAUGAUUAUAUGUGUUAGAUCAGAAGGGAUAACAUGAGGAUCACCCAUGUUGUGGAGUGA [JR_Ex6_Sub035] (Eterna round: R97, puzzle: Exclusion 6) | 64.2 nM
UAAGAAUGCAAGGAUAUGGCUAGGUAAAACAUGUCAGAAGGUGCUACAUGAGGAUCACCCAUGUGUCUCGUGCG [Eternabot (L1) Solution 2] (Eterna round: R97, puzzle: Exclusion 6) | 64.3 nM
CCUCAACAGGUCAGGAUAUACCCAACGGCGGACGGGUAGAAGGGACAUGAGGAUCACCCAUGUCCAGAGGUGAG [Eternabot (Original) Solution 11] (Eterna round: R97, puzzle: Brourd's mod of Exclusion 4) | 16.9 nM
UUUCAGCUAGGAUAUGCCCUGAUGCACAUGAGGAUCACCCAUGUCGGCUUGUGUAUGAGCGCAGAAGGAGCGAAAA [EX5 C.17] (Eterna round: R97, puzzle: Exclusion 5) | 268 nM
GCAGCAUAUGUAGGAUAUCUGCACGUGUAGUGCAGAGAAGGACAUGAGGAUCACCCAUGUAAUUAAGAUCAAUUAUUAAGCUGC [ENG1/4-A3] (Eterna round: R96, puzzle: Exclusion NG 1) | 22.2 nM
UUAAAUCAUGUAGGAUAUGCUUUGCAAAGCGAGGCAGAAGGACAUGAGGAUCACCCAUGUGCUAGCGUCCGAGAACGGAUGCAA [Mat - Exclusion NG 1 - Mod of JL - D64] (Eterna round: R96, puzzle: Exclusion NG 1) | 46.6 nM
GACUUCUCUGAGGAUAUUGCAUCAUACGAUAAAUAAGAAGGCAGAACAUGAGGAUCACCCAUGUGGGUUUUAAG [Bingo-Bango-33] (Eterna round: R97, puzzle: Exclusion 6) | 104 nM
AAGAAGUCAGGAUAUACAUGAGGAUCACCCAUGUAAAAGAAAGAAAAGGGAAAGAAAAGUAGAAGGGACAAGAA [Menkheperre Thutmose III] (Eterna round: R96, puzzle: Exclusion 3) | 27.2 nM
GCCGUACAUGAGGAUCACCCAUGUCAGGAUAUUUAGCACUCGGAGUUCCCGAGAGGUCAAAGAAGGGACAUUGC [EX1 C.17] (Eterna round: R97, puzzle: Exclusion 1) | 17.4 nM
UGUAUACAUGAGGAUCACCCAUGUAAGGAUAUACAUCAGAUCGACACCGGACUGGCCCGUAGAAGGUGCGUGGA [Eternabot (L2) Solution 67] (Eterna round: R97, puzzle: Exclusion 1) | 24 nM
UUAGCGUAUGUAAGGAUAUGCUGGUCUAAUGAUCAGCAGAAGGUACAUGAGGAUCACCCAUGUGUAUUCGUUAU [Mod of JL 7 - Jieux - Brourd's mod of Exclusion 4] (Eterna round: R97, puzzle: Brourd's mod of Exclusion 4) | 18.4 nM
AACUCAUGUUCAGGAUAUCGCGUUCCAAAGACAUGAGAAGGGAACAUGAGGAUCACCCAUGUGCCCGGUCUCAGACCGGGCUUC [Legebi] (Eterna round: R96, puzzle: Exclusion NG 1) | 97.1 nM
AAAUAGCUAGAGGAUAUCGGAUAGAAUUUAUUACGAGAAGGUUAGACAUGAGGAUCACCCAUGUUCUGUUGGGA [EX6 #22] (Eterna round: R97, puzzle: Exclusion 6) | 33.8 nM
